Reported IC50 values, Chromobox protein homolog 7 (Homo sapiens, UniProt O95931).

O=C1CCN(CCc2ccc(N3CCC(N4CCCC4)CC3)cc2)C1    > 30 µM
c1cc(N2CCC(N3CCCC3)CC2)ccc1CCN1CC2(COC2)C1    > 30 µM
c1cc(N2CCC(N3CCCC3)CC2)ccc1CCN1CCC2(C1)OCCO2    > 30 µM
N#CC1CCN(CCc2ccc(N3CCC(N4CCCC4)CC3)cc2)C1 (centres undefined)    > 30 µM
c1cc(N2CCC(N3CCCC3)CC2)ccc1CCN1CCCCC1    > 30 µM

Read off the recorded IC50 for "O=C(c1cccc(N2CCC(N3CCCC3)CC2)c1)N1CCCC1"
> 30 µM

Read off the recorded IC50 for "c1cc(N2CCC(N3CCCC3)CC2)ccc1CN1CCCC1"
> 30 µM

Read off the recorded IC50 for "c1cc(N2CCC(N3CCCC3)CC2)ccc1CCN1CCCC1"
> 30 µM

Read off the recorded IC50 for "c1cc(CN2CCCC2)cc(N2CCC(N3CCCC3)CC2)c1"
> 30 µM
